Cited source for all entries: patent US9718762B2

- Tested on: Heliothis virescens
- test-summary: Heliothis virescens (tobacco budworm) egg test on artificial diet
- Assay type: in vivo
- test-conditions: 96 h, 200 ppm (concentration in well 18 ppm), eggs on artificial diet, 4 days, egg mortality, larval mortality, growth regulation
Quick list: pest or weed control at 200 ppm per entry.

Consider the following illustrative entries.
{"compound-smiles": "COc1c(C(=O)Nc2c(Cl)cc(C(F)(C(F)(F)F)C(F)(F)F)cc2Br)cccc1N(C)C(=O)c1ccc(C#N)cc1", "pest or weed control at 200 ppm": "≥ 80%"}
{"compound-smiles": "CCN(C(=O)c1ccc(C#N)cc1)c1cccc(C(=O)Nc2c(Cl)cc(C(F)(C(F)(F)F)C(F)(F)F)cc2Cl)c1OC", "pest or weed control at 200 ppm": "≥ 80%"}
{"compound-smiles": "CCc1cc(C(F)(C(F)(F)F)C(F)(F)F)cc(CC)c1NC(=O)c1cccc(N(CC)C(=O)c2ccc(C#N)cc2)c1OC", "pest or weed control at 200 ppm": "≥ 80%"}
{"compound-smiles": "CCc1cc(C(F)(C(F)(F)F)C(F)(F)F)cc(Br)c1NC(=O)c1cccc(N(CC)C(=O)c2ccc(C#N)cc2)c1", "pest or weed control at 200 ppm": "≥ 80%"}
{"compound-smiles": "CCc1cc(C(F)(C(F)(F)F)C(F)(F)F)cc(Cl)c1NC(=O)c1cccc(N(C)C(=O)c2ccc(C#N)cc2)c1OC", "pest or weed control at 200 ppm": "≥ 80%"}
{"compound-smiles": "COc1c(C(=O)Nc2c(Cl)cc(C(F)(C(F)(F)F)C(F)(F)F)cc2Cl)cccc1N(C)C(=O)c1ccc(C#N)cc1", "pest or weed control at 200 ppm": "≥ 80%"}
{"compound-smiles": "CCc1cc(C(F)(C(F)(F)F)C(F)(F)F)cc(Cl)c1NC(=O)c1cccc(N(CC)C(=O)c2ccc(C#N)cc2)c1OC", "pest or weed control at 200 ppm": "≥ 80%"}
{"compound-smiles": "CCc1cc(C(F)(C(F)(F)F)C(F)(F)F)cc(Br)c1NC(=O)c1cccc(N(C)C(=O)c2ccc(C#N)cc2)c1OC", "pest or weed control at 200 ppm": "≥ 80%"}
{"compound-smiles": "COc1c(C(=O)Nc2c(Br)cc(C(F)(C(F)(F)F)C(F)(F)F)cc2Br)cccc1N(C)C(=O)c1ccc(C#N)cc1", "pest or weed control at 200 ppm": "≥ 80%"}
{"compound-smiles": "CCN(C(=O)c1ccc(C#N)cc1)c1cccc(C(=O)Nc2c(Br)cc(C(F)(C(F)(F)F)C(F)(F)F)cc2Br)c1OC", "pest or weed control at 200 ppm": "≥ 80%"}

## Input Request the reported pest or weed control at 200 ppm associated with `CCN(C(=O)c1ccc(C#N)cc1)c1cccc(C(=O)Nc2c(Cl)cc(C(F)(C(F)(F)F)C(F)(F)F)cc2Br)c1OC`
## Output ≥ 80%

## Input Request the reported pest or weed control at 200 ppm associated with `CCc1cc(C(F)(C(F)(F)F)C(F)(F)F)cc(C)c1NC(=O)c1cccc(N(CC)C(=O)c2ccc(C#N)cc2)c1OC`
## Output ≥ 80%
